# testProtocol: chemical genetic growth profiling, strain panel (AID 1159580);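 further: tested at 20 µM; growth read once vehicle control cultures reached saturation at 30 °C; 1 = growth at the plate median or of vehicle wells; lower values mean less growth of the strain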
# testContext: S. cerevisiae deletion strains, growth OD, locus YJL168C, strain set2, stronger effect = lower value
About 2,000 (36%) of roughly 5,500 compounds were called active. Inconclusive results (about 18%) are left out. The list shows a part of the results.
normalized growth values, listed per item
observedProperty: normalized growth

>  <compound>
CC(=O)C1CCC2C3CC(=O)C4=CC(=O)CCC4(C)C3CCC12C (stereo not drawn)

>  <observedProperty>
normalized growth

>  <endpointValue>
0.978

$$$$
>  <compound>
OCCN1C[C@@H](O)[C@@H](O)C(O)C1CO (stereo partly drawn)

>  <observedProperty>
normalized growth

>  <endpointValue>
1

$$$$
>  <compound>
CCC(=O)O[C@H]1[C@H](O[C@@H]2[C@@H](C)[C@H](O[C@H]3C[C@@](C)(OC)[C@@H](O)[C@H](C)O3)[C@@H](C)C(=O)O[C@H](CC)[C@@](C)(O)[C@H](O)[C@@H](C)C(=O)[C@H](C)C[C@@]2(C)O)O[C@H](C)C[C@@H]1N(C)C

>  <observedProperty>
normalized growth

>  <endpointValue>
1.01

$$$$
>  <compound>
CCOC(=O)C1(O)Oc2cc(OC)cc(OC)c2C(=O)C1c1ccccc1 (stereo not drawn)

>  <observedProperty>
normalized growth

>  <endpointValue>
0.977

$$$$
>  <compound>
CN1CCCN=C1COC(=O)C(O)(c1ccccc1)C1CCCCC1 (stereo not drawn)

>  <observedProperty>
normalized growth

>  <endpointValue>
0.992

$$$$
>  <compound>
CC(=O)[C@H]1CCC2C3CCC4=CC(=O)CC[C@]4(C)C3CC[C@@]21C (stereo partly drawn)

>  <observedProperty>
normalized growth

>  <endpointValue>
0.934

$$$$
>  <compound>
CC(=O)N[C@@H](CC(C)C)C(=O)O

>  <observedProperty>
normalized growth

>  <endpointValue>
0.997

$$$$
>  <compound>
O=C(CC[N+](=O)[O-])OC[C@H]1O[C@@H](O)[C@H](OC(=O)CC[N+](=O)[O-])[C@@H](OC(=O)CC[N+](=O)[O-])[C@@H]1OC(=O)CC[N+](=O)[O-]

>  <observedProperty>
normalized growth

>  <endpointValue>
1.01

$$$$

---

# testProtocol: chemical genetic growth profiling, strain panel (AID 1159580);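 further: tested at 20 µM; growth read once vehicle control cultures reached saturation at 30 °C; 1 = growth at the plate median or of vehicle wells; lower values mean less growth of the strain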
# testContext: S. cerevisiae deletion strains, growth OD, locus YHR030C, strain SLT2
In all, about 5,500 compounds went through this assay and about 2,000 (36%) were called active. Not shown: some 18% with an inconclusive outcome. Cut-off read from the data, not from the text of the source: active = normalized growth mostly below about 0.91 (no sharp cut-off); inconclusive = no clear call, values can overlap the other calls; inactive = mostly above about 0.92. Some of the results follow.
Outcomes: Yes = active, No = inactive

>  <compound>
Cc1cc(Cl)ccc1NNC(=O)c1snnc1C

>  <group>
Yes

$$$$
>  <compound>
Ic1ccc(I)s1

>  <group>
No

$$$$
>  <compound>
S=C(Nc1ccc(Cl)cc1Cl)N(c1cccc(Cl)c1)c1nc2ccccc2s1

>  <group>
Yes

$$$$
>  <compound>
O=C1C(=O)N(CN2CCc3c([nH]c4ccccc34)C2C(F)(F)F)c2ccc(F)cc21 (stereo not given)

>  <group>
Yes

$$$$
>  <compound>
CC1=C(OS(=O)(=O)c2cc(C)c(Cl)cc2Cl)C(=O)CC1

>  <group>
No

$$$$
>  <compound>
CCCS(=O)(=O)c1c(C)c(C)n(Cc2ccccc2)c1N

>  <group>
No

$$$$
>  <compound>
C[C@H]1OC(n2cc(F)c(=O)[nH]c2=O)C(O)[C@@H]1O (stereo not given in full)

>  <group>
No

$$$$
>  <compound>
COc1ccc(OC)c(S(=O)(=O)Nc2ccc(C#N)cc2)c1

>  <group>
No

$$$$
>  <compound>
COc1ccc2c(c1OC)C(=O)O[C@@H]2[C@H]1c2cc3c(cc2CCN1C)OCO3

>  <group>
No

$$$$
>  <compound>
COc1cc(NC(=S)NC(=O)c2ccccc2)c(OC)cc1Cl

>  <group>
No

$$$$
>  <compound>
COc1cc2c(cc1OC)C(C)N(C(=O)c1sc3ccccc3c1Cl)CC2 (stereo not given)

>  <group>
No

$$$$
>  <compound>
CCOC(=O)C1CCN(C(=S)Nc2ccccc2C(F)(F)F)CC1

>  <group>
No

$$$$
>  <compound>
O=C(CSc1nnnn1-c1ccccc1)c1ccccc1

>  <group>
Yes

$$$$
>  <compound>
c1ccc(N=Nc2ccc(Nc3ccccc3)cc2)cc1

>  <group>
Yes

$$$$
>  <compound>
N#CCOc1ccc(Cl)cc1Cl

>  <group>
No

$$$$
>  <compound>
CC(C)(C)C(=O)Nc1ccc(F)cc1

>  <group>
No

$$$$
>  <compound>
Cc1cc(Cl)ccc1NNC(=O)c1ccno1

>  <group>
No

$$$$
>  <compound>
Cc1cc(NNC(=O)c2ccccc2Cl)nc2c1c(C)nn2C

>  <group>
No

$$$$
>  <compound>
O=C(CSc1nnnn1-c1ccccc1)NC1Cc2ccccc2C1

>  <group>
No

$$$$
>  <compound>
COc1ccc(C2=C(C(C)=O)C(C)=NC(=S)C2C#N)cc1 (stereo not given)

>  <group>
No

$$$$
>  <compound>
COc1cc2c(cc1OC)CC(=O)OC2

>  <group>
No

$$$$
>  <compound>
Oc1cc(Cl)ccc1Oc1ccc(Cl)cc1Cl

>  <group>
Yes

$$$$
>  <compound>
N#Cc1ccc(S(=O)(=O)Nc2ccccc2Oc2ccc(Cl)cc2Cl)cc1

>  <group>
No

$$$$
>  <compound>
O=C(N/C=C/c1ccsc1)Nc1cc(C(F)(F)F)cc(C(F)(F)F)c1

>  <group>
Yes

$$$$
>  <compound>
Cc1cc(C(=O)NNc2ccc(F)cc2F)no1

>  <group>
No

$$$$
>  <compound>
CN1CCC(=C2c3ccccc3C=Cc3ccccc32)CC1

>  <group>
No

$$$$
>  <compound>
Cc1[nH]c(C)c(Cl)c(=O)c1Cl

>  <group>
No

$$$$
>  <compound>
COc1ccc(NNC(=O)c2sc3ccccc3c2Cl)cc1

>  <group>
Yes

$$$$
>  <compound>
CCC(=O)Nc1cc(F)ccc1C

>  <group>
No

$$$$
>  <compound>
COc1ccc(OC)c(S(=O)(=O)Oc2ccc(C#N)cc2)c1

>  <group>
No

$$$$
>  <compound>
Cc1ccc(-c2csc(-c3ccc(Cl)cc3)n2)c(C)c1

>  <group>
Yes

$$$$
>  <compound>
CCCCCCNC(=O)n1cc(F)c(=O)[nH]c1=O

>  <group>
Yes

$$$$
>  <compound>
Cc1nnsc1C(=O)NNc1c(Cl)cccc1Cl

>  <group>
No

$$$$
>  <compound>
CN1CCC(=C2c3ccccc3CCc3sccc32)CC1

>  <group>
No

$$$$
>  <compound>
CCC(NC(C)C)C(O)c1ccc(O)c(O)c1 (stereo not given)

>  <group>
No

$$$$
>  <compound>
CN(C)CCCOc1nn(Cc2ccccc2)c2ccccc12

>  <group>
No

$$$$
>  <compound>
CC(=O)OCC(=O)[C@@]1(O)[C@@H](C)CC2C3CCC4=CC(=O)C=C[C@]4(C)[C@@]3(F)[C@@H](O)C[C@@]21C (stereo not given in full)

>  <group>
No

$$$$
>  <compound>
NC(=O)C(c1ccccc1)(c1ccccc1)C1CCN(CCc2ccc3c(c2)CCO3)C1 (stereo not given)

>  <group>
No

$$$$
>  <compound>
C=C1C2CC[C@H]3[C@]4(C)C[C@H](OC5OC(CO)C(OS(=O)(=O)O)C(OS(=O)(=O)O)C5OC(=O)CC(C)C)C[C@@H](C(=O)O)[C@H]4CC[C@]3(C2)[C@H]1O (stereo not given in full)

>  <group>
No

$$$$
>  <compound>
Cc1c(Cc2ccc(F)cc2)c(=O)oc2cc(O)ccc12

>  <group>
Yes

$$$$
